Attribution: PubChem BioAssay (NCI)

Reported values of TGI for individual entries
tested on: MDA-N; assay: NCI tumour cell line growth inhibition, 48 h

Molecule	Unit Name	Qual	TGI
CCCCNCC(=O)O[C@]1(CC)C(=O)OCc2c1cc1n(c2=O)Cc2cc3ccccc3nc2-1	µM	=	23.1
O=C(NNC1=NCCN1)c1ccco1	µM	>	100
COC(=O)C1CCC(=O)N1CN(C(C)=O)c1ccccc1 (configuration not stated)	µM	>	100
Nc1c2c(nc3ccccc13)CCCCCC2	µM	=	30.4
O=[N+]([O-])/C=C1\COCc2cc3c(cc21)OCO3	µM	=	40.4
[N-]=[N+]=Nc1c(-c2ccccc2)c(Cl)nc2ccccc12	µM	>	100
CN(/N=C(\C(=O)O)c1ccccc1)C1=NCCCN1	µM	>	100
CCOC(=O)/C(C(=S)Nc1ccccc1)=C(/N)N1CCCC1	µM	=	84.9
CN(C)CCNC(=O)c1cccc2c(NCC(=O)O)c3ccccc3nc12	µM	>	100
COCn1c2ccc(OC(C)=O)cc2c2c(=O)oc(N(C)C)nc21	µM	>	100
O=c1oc2ccccc2c(Nc2ccc3c(c2)S(=O)(=O)c2ccccc2O3)c1[N+](=O)[O-]	µM	=	85.3
CCOC(=O)/C(Cl)=C(\C)Nc1nc2c(ccc3ccccc32)s1	µM	>	100
